procedure_summary: NCI Yeast Anticancer Drug Screen. Data for the sgs1 mgt1 strain (AID 161);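 also: 0% = growth of cultures given vehicle only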
experimental_parameters: S. cerevisiae sgs1 mgt1 strain, at 5.0 µM (retest, dose inferred, filed as 0.5)
Compounds without any hit were thinned out: in the full panel of roughly 79,000, 15% have a hit. Calls of active or inactive are those of the source. Rule as the data show it: active = growth inhibition above about 70%; inactive = the rest.
Outcome (select one): Yes for active, No for inactive

Some entries whose results are on file:
{"smi": "Cc1ccc(S(=O)(=O)N/N=C/C(Br)=C(/Br)C(=O)O)cc1", "classification": "No"}
{"smi": "CC1=COC2=C(C)C(=O)C(=O)c3c(C)ccc1c32", "classification": "No"}
{"smi": "COc1ccc2nc3cccc([N+](=O)[O-])c3c(NCCNCCO)c2c1", "classification": "Yes"}
{"smi": "O=C(Nc1ccc(Cl)cc1)c1cc2cc(N=Nc3ccccc3Cl)ccc2oc1=O", "classification": "No"}

Request: Short answer needed: outcome of this test for Cc1c(C(=O)/C=C/c2ccccc2[N+](=O)[O-])[n+](=O)c2ccccc2n1[O-] ?
Result: No

---

Measured growth inhibition of individual entries
procedure_summary: NCI Yeast Anticancer Drug Screen. Data for the mlh1 strain (AID 171);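 also: 0% = growth of vehicle-treated control cultures of the same strain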
experimental_parameters: S. cerevisiae mlh1 strain growth inhibition; at 1.2 µM; active compounds read high
This is part of a sample that, as a whole, favours compounds with a hit. Of some 79,000 tested, about 15% had one in any assay.
Numeric answer only, unit % assumed.

{"compound": "NC(CS)C(=O)NCCNc1ccc(NCCNC(=O)C(N)CS)c2c1C(=O)c1c(O)ccc(O)c1C2=O (stereo not drawn)", "growth inhibition [%]": -34}
{"compound": "O=C(/C(=C/c1ccc(O)cc1)c1ccccc1)c1ccccc1", "growth inhibition [%]": 6}
{"compound": "CC(CC/C(=N/O)c1ccccc1)(CC/C(=N\\O)c1ccccc1)[N+](=O)[O-] (stereo not drawn)", "growth inhibition [%]": -4}

Request: Kindly indicate its recorded growth inhibition. Item: O=C(Nc1ccc(Cl)cc1)c1cc2cc(N=Nc3ccccc3Cl)ccc2oc1=O
Result: 1

Request: Report growth inhibition, nothing else, for this compound: O=C(Cc1ccccc1)NN1C(=O)C(Cl)C1c1cc(Br)cc(Br)c1O (stereo not drawn)
Result: -3

Request: Please report the measured growth inhibition for CC(C)(N=Nc1ccc(Cl)cc1)[N+](=O)[O-]
Result: 3

Request: Report growth inhibition, nothing else, for this compound: N#C/C(=C\NC(=S)Nc1ccc(S(N)(=O)=O)cc1)C(=O)c1ccc2ccccc2c1
Result: -1

Request: Return value of growth inhibition for input Cc1cc2nc3ccccc3n2c2ccccc12 , no commentary.
Result: -33

Request: Please give measured growth inhibition of the following entry: O=C(c1ccccc1)[C@H]1Nc2ccc(Cl)cc2[C@H]2OCCC[C@@H]12
Result: -19

---

procedure_summary: NCI Yeast Anticancer Drug Screen. Data for the sgs1 strain (AID 173);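 also: 0% = growth of vehicle-only control cultures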
experimental_parameters: S. cerevisiae sgs1 mutant, at 11.0 µM, active compounds read high
About 79,000 compounds went through this panel and 15% of them were active in at least one assay; those are over-represented in the sample as a whole.
Reported growth inhibition values are given for each entry in this list.
API: value field is a number in %; no unit string.

Request: Provide one value: measured growth inhibition of O=Cc1ccccc1C=O
Result: -15

Request: Supply reported growth inhibition belonging to this molecule: Cc1cccc2c1C1c3c(C)cccc3C(CC(=O)O)CC1CC2 (stereo unspecified)
Result: 98

Request: Specify reported growth inhibition for the molecule shown: CCCCCCNCCCNc1c2cc(OC)ccc2nc2cccc([N+](=O)[O-])c12
Result: 88

Request: Answer with the recorded growth inhibition of CCCC/C=C1\CCC(CN2CCCC2)C1=O (stereo unspecified) only.
Result: 44

Request: Return reported growth inhibition. Input molecule: CC(C)CCC[C@@H](C)[C@H]1CC[C@H]2[C@@H]3CC[C@H]4C[C@H](N)CC[C@]4(C)[C@H]3CC[C@]12C
Result: 6

Request: Fill in growth inhibition for record CCN(CC)CCNc1ccc2nc(C)n3c4ccc(OC)cc4c(=O)c1c23
Result: 26

---

procedure_summary: NCI Yeast Anticancer Drug Screen. Data for the cln2 rad14 strain (AID 165);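 also: 0% = growth equal to vehicle treated cultures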
experimental_parameters: S. cerevisiae cln2 rad14 strain, at 5.0 µM (retest, dose inferred, filed as 0.5), active compounds read high
Compounds without any hit were thinned out: in the full panel of roughly 79,000, 15% have a hit. Activity calls are given as the source filed them. No stated cut-off is given here; in the data, active means growth inhibition above about 70%; inactive means the rest.
outcome_measure: growth inhibition

{"compound": "Clc1ccc(/C(=C\\c2ccccc2)Cn2ccnc2)cc1", "meas_value": "26% (inactive)"}
{"compound": "COc1cc2c(cc1O)[C@H](C)C(c1ccccc1OC)O2 (some centres not stated)", "meas_value": "26% (inactive)"}
{"compound": "O=C(Oc1ccc([N+](=O)[O-])cc1)c1ccc([N+](=O)[O-])cc1", "meas_value": "18% (inactive)"}
{"compound": "CC(C)(N=Nc1ccc(Cl)cc1)[N+](=O)[O-]", "meas_value": "-1% (inactive)"}
{"compound": "CN(C)CCCn1c2c3ccccc3ccc2c2oc(=O)c3ccccc3c21", "meas_value": "-17% (inactive)"}
{"compound": "CCCNC(=O)OCc1c(COC(=O)NCCC)c(-c2ccc(Cl)c(Cl)c2)n2c1CCC2", "meas_value": "20% (inactive)"}

Request: Name the recorded growth inhibition of the item Cc1c2c(nc3ccccc13)C(=O)c1cccnc1C2=O in your answer.
Result: -1% (inactive)

Request: Supply growth inhibition value. Item: Nc1ccc(S(=O)(=O)Nc2nc3c(c(=O)[nH]2)CCCC3)cc1
Result: 8% (inactive)

Request: Consider the compound CCCCCCCCCCCCCCCCCCNC(=S)/N=C/c1c(O)c2ccccc2[nH]c1=O and give its recorded growth inhibition.
Result: -7% (inactive)

Request: For the compound CNC(=O)OCc1c2ccncc2c(C)c2c1[nH]c1ccccc12 , give its measured growth inhibition value.
Result: 44% (inactive)

Request: Look up and state reported growth inhibition for O=NC1c2cccc3cccc(c23)C1N=O (configuration not stated)
Result: 6% (inactive)

Request: Consider the compound COC(=O)C(=O)c1c(-c2ccc(Cl)c(Cl)c2)[nH]c2[nH]n(-c3ccccc3)c(=O)c2c1=O and give its recorded growth inhibition.
Result: -11% (inactive)

---

growth inhibition: recorded values
procedure_summary: NCI Yeast Anticancer Drug Screen. Data for the mlh1 strain (AID 171);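 also: 0% = growth of vehicle-treated control cultures of the same strain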
experimental_parameters: S. cerevisiae mlh1 strain growth inhibition; at 1.2 µM; active compounds read high
Procedure: Growth inhibition of yeast strains with defined genetic alterations is measured as a screen for potential anti-cancer activity. Selected strains with alterations in DNA damage repair or cell cycle control were exposed to compounds and growth inhibition was measured relative to vehicle treated controls. The strain used in this assay is mlh1
About 79,000 compounds went through this panel and 15% of them were active in at least one assay; those are over-represented in the sample as a whole.
The reply should contain only the number, in %.

See these solved cases before continuing.
{"compound": "CC1(C)CC(=O)C(C=NC(=S)C(N)=S)=C(O)C1", "unit_descriptor": "%", "meas_value": -31}
{"compound": "O=C(NCCCCN(CCCNC(=O)C(F)(F)F)Cc1ccccc1)C(F)(F)F", "unit_descriptor": "%", "meas_value": 22}
{"compound": "C[N+](C)([O-])CCCNc1c2ccccc2nc2cccc([N+](=O)[O-])c12", "unit_descriptor": "%", "meas_value": 14}

Request: Give me measured growth inhibition, please, for this compound: CN(C)N=Nc1ccc(N(C)C)cc1
Result: -2

Request: Give me measured growth inhibition, please, for this compound: NC(N)=NS(=O)(=O)c1ccc(Nc2c3ccccc3nc3c(C(=O)NC(CO)(CO)CO)cccc23)cc1
Result: -1

Request: Respond only with growth inhibition recorded for CC(=O)CCC1=C(C)C(=O)C(=O)C(C)=C1O
Result: -5

---

procedure_summary: NCI Yeast Anticancer Drug Screen. Data for the rad50EPP+ strain (AID 151);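 also: 0% = growth of vehicle-treated control cultures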
experimental_parameters: S. cerevisiae rad50 mutant strain, at 33.0 µM, active compounds read high
Compounds without any hit were thinned out: in the full panel of roughly 79,000, 15% have a hit.
Note to self: values exactly at 10% are criterion met. So growth inhibition at or above 10% is criterion met, below is criterion not met.

{"molecule": "NC(CCCCCCCCCCCCC(N)C(=O)c1ccccc1)C(=O)c1ccccc1 (configuration not stated)", "classification": "criterion not met"}

Request: Hi, just wondering whether O=c1cccccc1[O-].O=c1cccccc1[O-].O=c1cccccc1[O-].[Eu+3] shows growth inhibition of 10% or higher.
Result: criterion met

Request: Assess whether reported growth inhibition for O=C1C(=C2CCCC2)CCC1CN1CCCCC1 (configuration not stated) sits at 10% or higher.
Result: criterion met

Request: Quick check: does O=C(Nc1cccs1)c1ccccc1 have growth inhibition greater than or equal to 10%?
Result: criterion met

---

This section presents compounds with their documented growth inhibition values.
procedure_summary: NCI Yeast Anticancer Drug Screen. Data for the CLN2oe strain (AID 163);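 also: 0% = growth of vehicle-only control cultures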
experimental_parameters: S. cerevisiae CLN2oe strain, at 33.0 µM, active compounds read high
The panel holds about 79,000 compounds, 15% with a hit somewhere; the sample as a whole holds those more often.
Report the figure in % without appending any unit label.

Please review the following examples before continuing.
{"compound": "CCN(CC)CCC(=O)Nc1ccc2sc3ccccc3c(=O)c2n1", "unit_descriptor": "%", "meas_value": 6}
{"compound": "CC(C)(CN1CCCCC1)C(=O)/C=C/c1c(Cl)cccc1Cl", "unit_descriptor": "%", "meas_value": 93}
{"compound": "CCCCCCCN(CCCCCCC)CC(=O)c1ccc2cc(Cl)c3ccccc3c2c1", "unit_descriptor": "%", "meas_value": 97}
{"compound": "O=[N+]([O-])c1ccc2[nH]c3c(-c4ccccc4)nccc3c2c1", "unit_descriptor": "%", "meas_value": 96}
{"compound": "CNC(=O)OCc1c2ccncc2c(C)c2c1[nH]c1ccccc12", "unit_descriptor": "%", "meas_value": 34}
{"compound": "CCOP(=O)(OCC)/C(C#N)=C/c1cccc(Oc2ccccc2)c1", "unit_descriptor": "%", "meas_value": 97}
{"compound": "CCCNC(=O)OCc1c(COC(=O)NCCC)c(-c2ccc(Cl)c(Cl)c2)n2c1CCC2", "unit_descriptor": "%", "meas_value": 4}
{"compound": "COC1/C=C\\C=C(/C)C(=O)NC2=CC(=O)C(=O)C(=C2O)CC(C)CC(OC)C(O)C(C)/C=C(\\C)C1OC(N)=O (stereo not given)", "unit_descriptor": "%", "meas_value": 95}
{"compound": "O=CC1(F)CC1(c1ccccc1)c1ccccc1 (stereo not given)", "unit_descriptor": "%", "meas_value": 1}

Request: Let me know recorded growth inhibition for CC(=O)Oc1ccc2c(c1)Cc1cc(N3C(=O)C=CC3=O)ccc1-2 , thanks.
Result: 92
